Measurement record for Melanocortin receptor 4 (Homo sapiens, UniProt P32245); quantity recorded: AC50.

Compound	Target desc	AC50
CCCNC(=O)NS(=O)(=O)c1ccc(Cl)cc1 [CHLORPROPAMIDE]	Melanocortin receptor 4 (Homo sapiens, UniProt P32245)	> 30 µM
COc1cc(C)c(/C=C/C(C)=C/C=C/C(C)=C/C(=O)O)c(C)c1C	Melanocortin receptor 4 (Homo sapiens, UniProt P32245)	> 10 µM
O=C(O)Cc1ccccc1Nc1c(Cl)cccc1Cl	Melanocortin receptor 4 (Homo sapiens, UniProt P32245)	> 30 µM
Cc1ccnc2c1NC(=O)c1cccnc1N2C1CC1	Melanocortin receptor 4 (Homo sapiens, UniProt P32245)	> 30 µM
CC1=C(/C=C/C(C)=C/C=C/C(C)=C/CO)C(C)(C)CCC1	Melanocortin receptor 4 (Homo sapiens, UniProt P32245)	> 10 µM
CN(Cc1cnc2nc(N)nc(N)c2n1)c1ccc(C(=O)N[C@@H](CCC(=O)O)C(=O)O)cc1 [METHOTREXATE]	Melanocortin receptor 4 (Homo sapiens, UniProt P32245)	> 30 µM
O=C(O)c1ccc(NC(=O)[C@H](Cc2ccc(O)cc2)NC(=O)c2ccccc2)cc1 [BENTIROMIDE]	Melanocortin receptor 4 (Homo sapiens, UniProt P32245)	> 10 µM
CCOC(=O)c1ccc(N)cc1	Melanocortin receptor 4 (Homo sapiens, UniProt P32245)	> 10 µM
Cc1ccccc1-n1c(CF)nc2ccc(N)cc2c1=O	Melanocortin receptor 4 (Homo sapiens, UniProt P32245)	> 30 µM
CCOC(=O)C(C)(C)Oc1ccc(Cl)cc1 [CLOFIBRATE]	Melanocortin receptor 4 (Homo sapiens, UniProt P32245)	> 30 µM
CCC(=O)O[C@](Cc1ccccc1)(c1ccccc1)[C@H](C)CN(C)C	Melanocortin receptor 4 (Homo sapiens, UniProt P32245)	> 30 µM
O=C1Cc2cc(CCN3CCN(c4nsc5ccccc45)CC3)c(Cl)cc2N1	Melanocortin receptor 4 (Homo sapiens, UniProt P32245)	> 30 µM
CNC(=C[N+](=O)[O-])NCCSCc1csc(CN(C)C)n1	Melanocortin receptor 4 (Homo sapiens, UniProt P32245)	> 10 µM
C[C@@H]1C[C@H]2[C@@H]3C[C@H](F)C4=CC(=O)C=C[C@]4(C)[C@@]3(F)[C@@H](O)C[C@]2(C)[C@@]1(OC(=O)c1ccco1)C(=O)SCF [FLUTICASONE FUROATE]	Melanocortin receptor 4 (Homo sapiens, UniProt P32245)	> 10 µM
CC(=O)[C@H]1CC[C@H]2[C@@H]3C[C@H](C)C4=CC(=O)CC[C@]4(C)[C@H]3[C@@H](O)C[C@]12C	Melanocortin receptor 4 (Homo sapiens, UniProt P32245)	> 10 µM
CC(=O)c1ccc(S(=O)(=O)NC(=O)NC2CCCCC2)cc1 [ACETOHEXAMIDE]	Melanocortin receptor 4 (Homo sapiens, UniProt P32245)	> 10 µM
CC(O)(CS(=O)(=O)c1ccc(F)cc1)C(=O)Nc1ccc(C#N)c(C(F)(F)F)c1 (configuration not stated) [BICALUTAMIDE]	Melanocortin receptor 4 (Homo sapiens, UniProt P32245)	> 30 µM
NC(=O)NC(=O)Cc1ccccc1 [PHENACEMIDE]	Melanocortin receptor 4 (Homo sapiens, UniProt P32245)	> 10 µM
O=C(c1cc(Cc2n[nH]c(=O)c3ccccc23)ccc1F)N1CCN(C(=O)C2CC2)CC1	Melanocortin receptor 4 (Homo sapiens, UniProt P32245)	> 30 µM
O=C1c2cccc3c2[C@H](CCC3)CN1[C@@H]1CN2CCC1CC2	Melanocortin receptor 4 (Homo sapiens, UniProt P32245)	> 30 µM
CC(C)[C@H](N)C(=O)OCCOCn1cnc2c(=O)[nH]c(N)nc21	Melanocortin receptor 4 (Homo sapiens, UniProt P32245)	> 30 µM
CN(C)CCCN1c2ccccc2CCc2ccccc21	Melanocortin receptor 4 (Homo sapiens, UniProt P32245)	21.4 µM
CCCCOc1ccc(C(=O)CCN2CCCCC2)cc1	Melanocortin receptor 4 (Homo sapiens, UniProt P32245)	> 30 µM
Cc1ccc(C)c(OCCCC(C)(C)C(=O)O)c1	Melanocortin receptor 4 (Homo sapiens, UniProt P32245)	> 30 µM
CC[C@H](C)C(=O)O[C@H]1C[C@@H](C)C=C2C=C[C@H](C)[C@H](CC[C@@H]3C[C@@H](O)CC(=O)O3)[C@H]21	Melanocortin receptor 4 (Homo sapiens, UniProt P32245)	> 30 µM
COc1cc(N)c(Cl)cc1C(=O)NC1CCN(CCCOc2ccc(F)cc2)CC1OC (configuration not stated) [CISAPRIDE]	Melanocortin receptor 4 (Homo sapiens, UniProt P32245)	> 30 µM
O=C(O)CCNC(=O)c1ccc(/N=N/c2ccc(O)c(C(=O)O)c2)cc1 [BALSALAZIDE]	Melanocortin receptor 4 (Homo sapiens, UniProt P32245)	> 30 µM
